Values were extracted from patent US7163946B2.

target: hPR (Homo sapiens); experiment: hPR cotransfection assay in CV-1 cells, agonist mode; format: cell-based; conditions: CV-1, CV-1 cells; relative to maximal response of progesterone as 100%; read-out: hPR Agonist CV-1 Cells Eff. (%)
Sequence (P06401 whole entry): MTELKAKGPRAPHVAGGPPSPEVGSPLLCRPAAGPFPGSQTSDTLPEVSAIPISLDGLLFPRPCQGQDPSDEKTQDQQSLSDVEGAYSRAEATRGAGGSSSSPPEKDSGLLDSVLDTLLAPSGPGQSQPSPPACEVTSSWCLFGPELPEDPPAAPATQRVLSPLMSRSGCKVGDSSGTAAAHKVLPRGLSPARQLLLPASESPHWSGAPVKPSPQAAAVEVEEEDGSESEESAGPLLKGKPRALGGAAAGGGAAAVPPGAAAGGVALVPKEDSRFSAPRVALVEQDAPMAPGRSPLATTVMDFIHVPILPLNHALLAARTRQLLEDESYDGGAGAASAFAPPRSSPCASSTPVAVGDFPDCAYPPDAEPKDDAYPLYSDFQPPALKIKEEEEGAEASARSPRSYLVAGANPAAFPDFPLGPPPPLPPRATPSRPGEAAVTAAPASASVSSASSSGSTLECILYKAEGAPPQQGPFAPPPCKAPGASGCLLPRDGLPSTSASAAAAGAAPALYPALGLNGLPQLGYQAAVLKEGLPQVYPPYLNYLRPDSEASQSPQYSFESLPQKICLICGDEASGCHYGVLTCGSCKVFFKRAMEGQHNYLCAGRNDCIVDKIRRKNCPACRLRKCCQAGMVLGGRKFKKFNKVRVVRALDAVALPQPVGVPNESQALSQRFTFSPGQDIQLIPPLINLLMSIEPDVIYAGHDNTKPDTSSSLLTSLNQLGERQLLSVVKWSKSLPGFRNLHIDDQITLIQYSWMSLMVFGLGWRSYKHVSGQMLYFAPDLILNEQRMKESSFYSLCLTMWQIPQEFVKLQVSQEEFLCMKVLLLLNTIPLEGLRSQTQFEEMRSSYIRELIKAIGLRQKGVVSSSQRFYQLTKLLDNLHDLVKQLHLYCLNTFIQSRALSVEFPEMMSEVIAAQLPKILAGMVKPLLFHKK
measure: Emax

So what's the measured Emax for this one? COC1Oc2c(F)cc(F)cc2-c2ccc3c(c21)C(C)=CC(C)(C)N3 (racemic)
< 20%

So what's the measured Emax for this one? CC1=CC(C)(C)Nc2ccc3c(c21)C(CC(=O)c1ccccc1)Oc1c(F)cc(F)cc1-3 (racemic)
< 20%

So what's the measured Emax for this one? CN(C)c1ccc([C@H]2C[C@]3(C)[C@@H](CC[C@]3(O)CCCO)[C@@H]3CCC4=CC(=O)CCC4=C32)cc1 [ZK299, reference compound]
< 20%
